- target-desc: human GPR40 (Homo sapiens)
- Construct: expressed in transfected cells
- Sequence (O14842 whole entry R211H): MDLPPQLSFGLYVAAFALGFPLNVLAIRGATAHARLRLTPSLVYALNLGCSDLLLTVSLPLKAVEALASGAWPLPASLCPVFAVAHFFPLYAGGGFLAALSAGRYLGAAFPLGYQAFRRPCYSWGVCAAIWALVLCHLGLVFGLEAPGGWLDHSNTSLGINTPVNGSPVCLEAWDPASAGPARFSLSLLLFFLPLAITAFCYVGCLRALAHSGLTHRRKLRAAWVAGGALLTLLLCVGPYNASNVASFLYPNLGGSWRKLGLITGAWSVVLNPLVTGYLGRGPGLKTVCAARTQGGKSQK
- experiment-notes: GPR40 agonist activity measurement (FLIPR, intracellular calcium)
- Type: cell-based
- recorded-conditions: human GPR40-expressed CHO cell strain; fluorescence intensity change one minute after measurement
pEC50: −log10 of the molar value.
Answer not satisfied if pEC50 is under 7, and satisfied if it is 7 or more.

Request: Hi team, for `Cc1c(CNc2ccc(CCC(=O)O)c(F)c2)ccc2c1N(c1ccc(C(F)(F)F)cc1)CCC2` , is the recorded pEC50 at or above 7?
Response: not satisfied

Request: Is it the case that `O=C(O)[C@@H]1C[C@H]1c1ccc(NCc2cccc3c2CCCN3CCOc2ccccc2)cc1` has pEC50 reaching or exceeding 7?
Response: not satisfied

Request: Please tell me: is the molecule `O=C(O)CCc1ccc(NCc2cccc3c2CCCN3CCOc2ccccc2)cc1F` at or over 7 in terms of pEC50?
Response: not satisfied

Request: Check the entry `Cc1c(CNc2ccc(CCC(=O)[O-])c(F)c2)ccc2c1N(c1ccccn1)CCC2.[Na+]` : does pEC50 equal or exceed 7?
Response: satisfied

Request: Threshold query (pEC50 >= 7) on `COc1ccccc1CCN1CCCc2ccc(CNc3ccc(CCC(=O)O)c(F)c3)c(C)c21`
Response: satisfied

###

- target-desc: UniProt:O14842
- experiment-notes: GPR40 agonist activity measurement (FLIPR, intracellular calcium)
- recorded-conditions: human GPR40-expressed CHO cell strain; fluorescence intensity change one minute after measurement
measurement-type: pEC50
Field pEC50 (float): negative decimal logarithm of the concentration in molar.

Request: Entry O=C(O)CCc1ccc(NCc2cccc3c2CCCN3CCOc2ccccc2)nc1 [Example 437] : reported pEC50 = ?
Response: 6.14

Request: Fill in: pEC50 of COc1ccccc1OCCN1CCCc2c(CNc3ccc(CCC(=O)O)c(F)c3)cccc21 [Example 176] is ___
Response: 7.04

Request: Can you share its pEC50? I mean this molecule: O=C(O)CCc1ccc(NCc2cccc3c2CCCN3CCc2ccccc2)cc1F [Example 89]
Response: 6.21

Request: What value of pEC50 has been reported for the following molecule? O=C(O)CCc1ccc(OCc2ccc3c(c2)N(CCC(F)(F)F)CCC3)cc1F [Example 73]
Response: 7.14

Request: Returns the measured pEC50 for the input molecule. Input: Cc1cccc(N2CCCc3ccc(CNc4ccc(CCC(=O)O)c(F)c4)c(C)c32)c1 [Example 215]
Response: 6.49

Request: Request the reported pEC50 associated with CCCN1CCCc2cccc(CNc3ccc(CCC(=O)[O-])c(F)c3)c21.[Na+] [Example 57]
Response: 7.01

Request: Looking for the measured pEC50 of O=C(O)CCc1ccc(NCc2ccc3c(c2)N(c2ccccc2)CCC3)cc1F [Example 86] , can you help?
Response: 7.72

###

- target-desc: human GPR40 (Homo sapiens)
- experiment-notes: GPR40 agonist activity measurement (FLIPR, intracellular calcium)
- recorded-conditions: human GPR40-expressed CHO cell strain; fluorescence intensity change one minute after measurement
measurement-type: pEC50
On this scale, pEC50 is minus log10 of a concentration expressed in M (mol/L).

Request: Query (compound): CCCN1CCCc2c(CNc3ccc(CCC(=O)O)c(F)c3)cccc21 [Example 87] ; field requested: pEC50
Response: 7.09

Request: // returns reported pEC50 for input CC(=O)N1CCCc2ccc(COc3ccc(CCC(=O)O)c(F)c3)cc21 [Example 74]
Response: 7.12

Request: Return reported pEC50; argument: Cc1ccc(CNc2ccc(CCC(=O)O)c(F)c2)c2c1N(CCOc1ccccc1)CCC2 [Example 424]
Response: 6.89
